- assay_target: M2 protein of A/Hong Kong/483/1997, on cells (Influenza A virus A/Hong Kong/483/97 (H5N1))
- protocol_text: FACS, supernatant on CHO cells stably expressing M2 of A/Hong Kong/483/97
readout: FACS M2-HK MFI (MFI)
Expressed in MFI, but write only the number.

* 3252_C13 (antibody, V domains shown) VH: QVQLQESGPGLVKPSETLSLTCTVSGASISSDYWSWIRLPPGKGLEWIGYIYNRGSTKYTPSLKSRVTISLDTAENQFSLRLRSVTAADTAIYYCARHVGGHTYGIDYWGQGTLVTVSS VL: DIQMTQSPSSLSASVGDRVTITCRASQSISNYLNWYQHKPGEAPKLLNYAASSLQSGVPSRFSASGSGTDFTLTISSLQPEDFATYYCQQSYNTPITFGQGTRLEIK | 449
* 3244_H04 (antibody, V domains shown) VH: EVQLVESGGGLVQPGGSLRLSCTASGLSVSSTYMNWVRQAPGKGLEWVSVFYSETRTYYADSVKGRFTVSRHNSNNTLYLQMNSLRAEDTAVYYCARVQRLSYGMDVWGQGTTVTVSS VL: DIQMTQSPSSLSASVGDRVTITCRASQSISTYLNWYQKRPGKAPKLLVYGASSLQSGVPSRFSGSGSGTDFTLTIASLQPEDSAVYYCQQTYSIPLFGQGTRLEIK | 963
* 3255_J06 (antibody, V domains shown) VH: QVQLQESGPGLVKPSETLSLTCTVSGASISSDYWSWIRLPPGKGLEWIGYIYNRGSTKYTPSLKSRVTISLDTAENQFSLRLRSVTAADTAVYYCARHVGGHTYGIDYWGQGTLVTVSS VL: DIQMTQSPSSLSASVGDRVTITCRASQSISNYLNWYQHKPGEAPKLLNYAASSLQSGVPSRFSASGSGTDFTLSISGLQPEDFATYYCQQSYNTPITFGPGTRLEIK | 442

For the binder 3253_P10 (antibody, V domains shown) VH: QVQLQESGPGLLKPSDTLALTCTVSGGSITSDYWSWIRQPPGRGLDWIGFFYNGGSTKYNPSLKSRVTISADTSKNQLSLKLTSVTAADTGVYYCARHDAKFSGSYYVASWGQGTRVTVSS VL: DIQMTQSPSSLSASVGDRVTISCRASQSISTYLNWYQQQPGKAPKVLISGATDLQSGVPSRFSGSGSGTDFTLTISSLQPEDFATYYCQQSYNTPLIFGQGTKLEIK , give its measured FACS M2-HK MFI value.
43

For the binder 3248_P18 (antibody, V domains shown) VH: QVQLQESGPGLVKPSETLSLTCTVSGGSISAYHWSWIRQPPGKGLEWIGHIFDSGSTYYNPSLKSRVTISLDASKNQLSLRLTSVTASDTAIYYCARPLGSRYYYGMDVWGQGTTVTVSS VL: DIQMTQSPSSLSASVGDRVTITCRASQSISRYLNWYQQKPGKAPKLLIYGASTLQNGAPSRFSGSGSGTDFTLTISSLQPEDSATYLCQQSYSVPAFGGGTKVEVK , give its measured FACS M2-HK MFI value.
967

For the binder 3259_J21 (antibody, V domains shown) VH: QVQLQESGPRVVRPSETLSLTCTVSGGSISSYNWIWIRQPPGKGLEWIGHIYDYGRTFYNSSLQSRPTISVDASKNQLSLRLTSVTASDTAVYYCARPLGILHYYAMDLWGQGTTVTVSS VL: DIQMTQSPLSVSVSVGDRVTIACRASQSIDKFLNWYQQKPGKAPKLLIYGASNLHSGAPSRFSASGSGTDFTLTITNIQTEDFATYLCQQSFSVPAFGGGTKVEIK , give its measured FACS M2-HK MFI value.
1670

For the binder 3243_J07 (antibody, V domains shown) VH: QVQLQESGPGLLKPSDTLALTCTVSGGSITSDYWSWIRQPPGRGLDWIGFFYNGGSTKYNPSLKSRVTISADTSKNQLSLKLTSVTAADTGVYYCARHDVKFSGSYYVASWGQGTRVTVSS VL: DIQMTQSPSSLSASVGDRVTISCRASQSISTYLNWYQQQPGKAPKVLISGATNLQSGVPSRFSGSGSGTDFTLTISSLQPEDFATYYCQQSYNTPLIFGQGTKLEIK , give its measured FACS M2-HK MFI value.
131

For the binder 3245_O19 (antibody, V domains shown) VH: EVQLVESGGGLVQPGGSLRLSCTASGLSVSSTYMNWVRQAPGKGLEWVSVFYSETRTYYADSVKGRFTVSRHNSNNTLYLQMNSLRVEDTAVYYCARVQRLSYGMDVWGQGTTVTVSS VL: DIQMTQSPSSLSASVGDRVTITCRASQSISTYLNWYQKRPGKAPKLLVYGASTLQSGVPSRFSGSGSGTDFTLTIASLQPEDSATYYCQQTYSIPLFGQGTRLEIK , give its measured FACS M2-HK MFI value.
919

For the binder 3242_P05 (antibody, V domains shown) VH: DMQLVESGGGLVPPGGSLRLSCAASGFSVSDNYINWVRQAPGKGLDWVSVFYSADRTSYADSVKGRFTVSSHDSKNTVYLQMNSLRAEDTAVYYCARVQKSYYGMDVWGQGTTVTVSS VL: GIQMTQSPSSLSASVGDRVTITCRASQSISRYLNWYLQKPGKAPKLLISGASSLQSGVPSRFSGTGSGTEFTLTISSLQPEDFATYYCQQTFSIPLFGQGTKVEIK , give its measured FACS M2-HK MFI value.
596
